procedureDetails: Quantitative High-Throughput drug screen in 47 multiple myeloma cell lines against the NCATS MIPE library collection: OPM2_DSMZ cell viability assay (AID 1919872); note: nearly all actives have a fitted effect of over 30% in size
cond: OPM2 myeloma viability, CellTiter-Glo ATP luminescence, 48 h; series mostly up to 45.8 µM
Source text: PI: Beverly A. Mock Ph.D. Laboratory of Cancer Biology and Genetics, Center for Cancer Research, National Cancer Institute, National Institute of Health, Bethesda, Maryland […] 5; Detector; 425V; Luminescence; Viewlux PerkinElmer. […] 1. […] Briefly, the corresponding myeloma cell lines were screened in 1,536-well plates with 500 cells, 5-uL per well for inhibition of cell viability (assessed by measuring ATP levels with CellTiterGlo). […]
Inconclusive results are not listed. The source made the active and inactive calls. Calls come from the whole dose curve; as a rule, active = well fitted cell-killing curve with a large enough effect; inconclusive = small, poorly fitted or top-dose-only effect, or effect the other way; inactive = no such curve, though single readings can be large or run the other way.
Your response should consist of one outcome taken from 1 for active, 0 for inactive

Worked set:
# molecule, classLabel
data = [
    ("CC1(C)CC(O)CC(C)(C)N1[O]", 0),
    ("O=[N+]([O-])c1cn2c(n1)OC[C@@H](OCc1ccc(OC(F)(F)F)cc1)C2", 0),
    ("C=CCNc1c(O)cc2c(O)c1C[C@@H](C)C[C@H](OC)[C@@H](O)[C@@H](C)C=C(C)[C@H](OC(N)=O)[C@@H](OC)C=CC=C(C)C(=O)N2", 1),
    ("C=Cc1c(C)c2cc3nc(cc4[nH]c(cc5nc(cc1[nH]2)C(C)=C5CCC(=O)O)c(CCC(=O)OC)c4C)[C@@]1(C)C3=CC=C(C(=O)OC)[C@H]1C(=O)OC", 1),
    ("COc1cc(C)c(Sc2cnc(NC(=O)c3ccc(CNC(C)C(C)(C)C)cc3)s2)cc1C(=O)N1CCN(C(C)=O)CC1 (stereo not given)", 1),
]

Attention now shifts to the item below.
Problem: Returns: the outcome recorded for O=C(C=CC#Cc1cccc(NS(=O)(=O)c2ccccc2)c1)NO in this assay.
Solution: 1
